TESTED TARGET: T1, rhesus serum albumin (rhesus, UniProt Q28522 17-600)
T1 construct: also called RhSA; Rh-SA
T1 sequence (Q28522 17-600 limits assumed): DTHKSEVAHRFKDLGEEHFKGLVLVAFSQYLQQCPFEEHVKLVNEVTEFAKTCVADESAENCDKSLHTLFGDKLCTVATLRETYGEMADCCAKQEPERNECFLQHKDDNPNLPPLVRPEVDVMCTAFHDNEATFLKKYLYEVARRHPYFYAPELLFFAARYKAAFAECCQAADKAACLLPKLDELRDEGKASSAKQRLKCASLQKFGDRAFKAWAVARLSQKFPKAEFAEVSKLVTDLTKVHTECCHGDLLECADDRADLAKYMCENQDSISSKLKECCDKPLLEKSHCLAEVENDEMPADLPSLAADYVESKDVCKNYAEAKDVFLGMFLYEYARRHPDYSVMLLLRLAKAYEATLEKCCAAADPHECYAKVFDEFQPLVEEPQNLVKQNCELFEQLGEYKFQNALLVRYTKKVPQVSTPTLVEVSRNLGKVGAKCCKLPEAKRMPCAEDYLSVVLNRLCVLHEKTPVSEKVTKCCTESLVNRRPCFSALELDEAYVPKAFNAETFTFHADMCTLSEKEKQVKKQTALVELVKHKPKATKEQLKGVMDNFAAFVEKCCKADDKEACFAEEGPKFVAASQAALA
ASSAY METHOD TEXT: SPR, albumin immobilized;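 further: biacore SPR with human, rhesus or mouse serum albumin amine-coupled to the chip (about 1200 RU), 3 min association, 6-10 min dissociation, reference-subtracted traces fitted with a 1:1 model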
VALUE KIND: Kd (nM)
Could you give me the number in nM? Just the number is fine.

BINDER	Kd [nM]
PKE2 Adnectin 2629_E06 (designed binder, 10Fn3 domain with modified CD loop; the entry includes the His6 tail; also called ADX_2629_E06) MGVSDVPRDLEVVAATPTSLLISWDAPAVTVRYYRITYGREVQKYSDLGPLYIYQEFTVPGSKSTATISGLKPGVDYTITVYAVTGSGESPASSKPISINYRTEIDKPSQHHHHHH	14.5

The binder PCSK9-PKE2 tandem 4472_F08 (designed binder, The real molecule is ONE polypeptide: PCSK9 domain, undisclosed linker F, PKE2 domain. It is given here as two chains because the linker letters are unknown., not shown: The inter-domain linker) PCSK9 domain: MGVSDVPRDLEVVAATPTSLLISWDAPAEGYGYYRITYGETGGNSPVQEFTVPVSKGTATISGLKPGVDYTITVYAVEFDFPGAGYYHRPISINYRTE PKE2 domain: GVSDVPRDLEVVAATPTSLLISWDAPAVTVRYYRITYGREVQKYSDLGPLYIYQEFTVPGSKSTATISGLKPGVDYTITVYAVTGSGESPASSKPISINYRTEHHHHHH showed Kd equal to 68.7

The binder PCSK9-PKE2 tandem Adnectin w/ his tag 4472_C06 (designed binder, also called ATI-1574; ADX_4472_C06) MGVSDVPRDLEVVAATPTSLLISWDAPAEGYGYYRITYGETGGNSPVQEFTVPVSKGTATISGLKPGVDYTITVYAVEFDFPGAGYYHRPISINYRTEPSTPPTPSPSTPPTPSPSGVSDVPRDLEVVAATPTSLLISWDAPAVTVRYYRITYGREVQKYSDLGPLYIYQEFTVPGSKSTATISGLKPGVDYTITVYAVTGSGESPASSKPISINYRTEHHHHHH showed Kd equal to 77

The binder PCSK9-PKE2 tandem 4472_E06 (designed binder, The real molecule is ONE polypeptide: PCSK9 domain, undisclosed linker I (a code letter), PKE2 domain. It is given here as two chains because the linker letters are unknown., also called 4427_E06; not shown: The inter-domain linker) PCSK9 domain: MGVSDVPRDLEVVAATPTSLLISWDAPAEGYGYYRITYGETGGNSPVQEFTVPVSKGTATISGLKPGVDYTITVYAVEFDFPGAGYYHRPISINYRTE PKE2 domain: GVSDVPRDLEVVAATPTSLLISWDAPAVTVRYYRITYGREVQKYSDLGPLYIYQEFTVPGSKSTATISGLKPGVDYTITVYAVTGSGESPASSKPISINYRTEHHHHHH showed Kd equal to 71.9
